# System: HepG2
# Experimental parameters: human, hepg2 cells, 48 h
Lab note: compare Log AC50 (M) against -5 M. Equal or greater, write True. Smaller, write False.

Illustrative cases are given below, each with its answer.
O=C(CC1C(=O)NCCN1Cc1cccc(Oc2ccccc2)c1)NCc1ccco1 (centres unmarked) [NCGC00439848-01] : False
CCCN(CCC)CCCN=C(S)Nc1ccc2nc(N3CCCC3)cc(C)c2c1 [MLS000730709-01] : True
COc1ccc(CCN2CCC(Nc3nc4ccccc4n3Cc3ccc(F)cc3)CC2)cc1 [NCGC00016913-08] : True
CC(C)(C)c1ccc(NC(=O)OC[C@H]2C[C@@H]3CCN2C[C@@H]3c2cc(C3CCCC3)nc(-c3ccncc3)n2)cc1 [NCGC00391636-01] : True
Cc1nc(-c2ccc(Cl)cc2)sc1CCNC(=O)c1ccco1 [NCGC00131874-01] : False

# ---- query compound ----
input: Quick check: does CCC(CC)c1cc([C@H]2CN3CC[C@H]2C[C@@H]3COC(=O)Nc2ccc(C(C)(C)C)cc2)nc(-c2ccncc2)n1 [NCGC00394559-01] have Log AC50 (M) greater than or equal to -5 M?
output: True
